Study System: human KCa2.3 (Homo sapiens, UniProt Q9UGI6)
Construct: The cloning of hKCa2.3 (19 CAG repeats) and hKCa3.1 has been previously described (Wulff et al., 2000)
Sequence (Q9UGI6 with tags, fused parts or gaps DUP76-80): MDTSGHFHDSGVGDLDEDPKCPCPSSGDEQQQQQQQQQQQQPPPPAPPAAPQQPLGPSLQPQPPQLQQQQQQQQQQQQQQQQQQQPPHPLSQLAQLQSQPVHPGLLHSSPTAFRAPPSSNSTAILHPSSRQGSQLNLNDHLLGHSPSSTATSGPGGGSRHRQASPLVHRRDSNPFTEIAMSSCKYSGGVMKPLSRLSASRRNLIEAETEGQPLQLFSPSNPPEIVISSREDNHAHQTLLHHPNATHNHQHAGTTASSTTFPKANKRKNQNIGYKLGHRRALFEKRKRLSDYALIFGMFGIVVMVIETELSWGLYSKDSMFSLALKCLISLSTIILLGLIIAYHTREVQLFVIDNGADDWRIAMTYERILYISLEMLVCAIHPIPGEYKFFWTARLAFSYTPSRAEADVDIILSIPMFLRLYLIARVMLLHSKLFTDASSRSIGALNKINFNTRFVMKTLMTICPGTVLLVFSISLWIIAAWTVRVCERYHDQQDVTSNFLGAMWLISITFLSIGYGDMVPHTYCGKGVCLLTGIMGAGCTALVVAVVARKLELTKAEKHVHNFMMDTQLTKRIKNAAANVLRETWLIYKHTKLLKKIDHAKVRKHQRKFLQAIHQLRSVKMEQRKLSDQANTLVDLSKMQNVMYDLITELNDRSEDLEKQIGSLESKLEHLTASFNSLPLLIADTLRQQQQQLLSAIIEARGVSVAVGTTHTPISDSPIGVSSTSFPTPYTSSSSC
Test Details: Manual whole-cell patch-clamp KCa2.3 activation (COS-7)
Format: cell-based
Reported Conditions: read-out: EC50 for KCa2.3 activation; 250 nM free Ca2+
Property Measured: EC50
Field: value (include unit after the number)

EC50 recorded for this molecule, Cc1cc2sc(N)nc2c2ccccc12 [SKA-111, 5-methylnaphtho[1,2-d]thiazol-2-amine] , is 13.7 µM

====

Test Details: Pharmacokinetics in mice (UPLC/MS)
Assay type: in vivo, mouse
Reported Conditions: male, C57Bl/6J, mouse, plasma, iv, 10 mg/kg, 10 mg/kg i.v.; mice; read-out: half-life
Property Measured: half-life

half-life recorded for this molecule, Cc1cc2nc(N)oc2c2ccccc12 [SKA-121, 5-Methylnaphtho[2,1-d]oxazol-2-amine] , is ~20 min

====

Would you kindly list EC50 for each of these compounds?
Study System: KCa3.1 (Homo sapiens, UniProt O15554+P0DP23)
Test Details: Whole-cell patch-clamp KCa3.1 activation (QPatch, HEK-293)
Type: cell-based
Parameters: host or cells: HEK-293
Reported Conditions: 250 nM free Ca2+; read-out: EC50 for KCa3.1 activation
Answers are plain numbers, in nM.

Would you please look over these solved cases?
EC50 recorded for this compound, Nc1nc2c(cc(Cl)c3ccccc32)s1 [SKA-72, 5-Chloronaphtho[1,2-d]thiazol-2-amine] , is 110

EC50 recorded for this compound, Nc1nc2c(cc3c4c(cccc42)CC3)s1 , is 1000

EC50 recorded for this compound, Nc1nc2c(ccc3ccccc32)o1 [SKA-102, Naphtho[1,2-d]oxazol-2-amine] , is 2700

Turning to the following compound.
EC50 recorded for this compound, Cc1cc2oc(N)nc2c2ccccc12 [SKA-120, 5-Methylnaphtho[1,2-d]oxazol-2-amine] , is 180

====

Test Details: Pharmacokinetics in mice (UPLC/MS)
Assay type: in vivo, mouse
Reported Conditions: male, C57Bl/6J, mouse; mice; averaged paired brain and plasma samples; read-out: brain/plasma ratio
Property Measured: Kp
Answers are plain numbers.

Kp recorded for this compound, Cc1cc2nc(N)oc2c2ccccc12 [SKA-121, 5-Methylnaphtho[2,1-d]oxazol-2-amine] , is 3.3

====

Property Measured: melting point (°C)
One number for each entry, in °C.

melting point recorded for this compound, N#Cc1cc2sc(N)nc2c2ccccc12 , is 265

melting point recorded for this compound, COc1cccc2c1CCc1sc(N)nc1-2 , is 200

melting point recorded for this compound, Nc1nc2c(ccc3sccc32)s1 , is 161

Quick one: give me melting point for each item below, same order please.
1. Cc1cc(C)c2ccc3sc(N)nc3c2c1
2. Nc1nc2c(cc(Cl)c3ccccc32)s1 [SKA-72, 5-Chloronaphtho[1,2-d]thiazol-2-amine]
3. Nc1nc2c(cc3c4c(cccc42)CC3)s1
4. Cc1cc(C)c2c(c1)-c1nc(N)sc1CC2
5. COc1cc2sc(N)nc2c2ccccc12 [SKA-117, 5-Methoxynaphtho[1,2-d]thiazol-2-amine]

1: 157; 2: 253; 3: 257; 4: 159; 5: 213

melting point recorded for this compound, Nc1nc2c3c(ccc2s1)CCC3 , is 195

====

Test Details: Plasma protein binding by ultrafiltration
Type: in vitro ADME
Reported Conditions: rat plasma, 10 μM compound
Property Measured: fraction unbound at 30 min, 10 μM
Give bare numbers.

fraction unbound at 30 min, 10 μM recorded for this molecule, Cc1cc2sc(N)nc2c2ccccc12 [SKA-111, 5-methylnaphtho[1,2-d]thiazol-2-amine] , is 0.41

Turning to the following molecule.
fraction unbound at 30 min, 10 μM recorded for this molecule, Cc1cc2nc(N)oc2c2ccccc12 [SKA-121, 5-Methylnaphtho[2,1-d]oxazol-2-amine] , is 0.19

====

Test Details: Pharmacokinetics in mice (UPLC/MS)
Format: in vivo, mouse
Reported Conditions: male, C57Bl/6J, mouse, plasma, intravenous, 10 mg/kg; […] mg/kg i.v.; mice; read-out: total plasma concentration at 1 h
Property Measured: concentration at 1 h (nM)
One number for each entry, in nM.

concentration at 1 h recorded for this molecule, Cc1cc2nc(N)oc2c2ccccc12 [SKA-121, 5-Methylnaphtho[2,1-d]oxazol-2-amine] , is 483

====

Test Details: Pharmacokinetics in mice (UPLC/MS)
Assay type: in vivo, mouse
Reported Conditions: male, C57Bl/6J, mouse, plasma, intravenous, 10 mg/kg; […] mg/kg i.v.; mice; read-out: total plasma concentration at 4 h
Property Measured: concentration at 4 h (nM)
Answers are plain numbers, in nM.

concentration at 4 h recorded for this compound, Cc1cc2nc(N)oc2c2ccccc12 [SKA-121, 5-Methylnaphtho[2,1-d]oxazol-2-amine] , is 53

====

Study System: rKCa2.2 (UniProt P0DP23+P70604)
Test Details: Whole-cell patch-clamp KCa2.2 activation (HEK-293)
Property Measured: pEC50
One number for each entry, as −log10 of the molar value.

pEC50 recorded for this compound, Cc1cc2nc(N)oc2c2ccccc12 [SKA-121, 5-Methylnaphtho[2,1-d]oxazol-2-amine] , is 5.17

====

Study System: KCa3.1 (Homo sapiens, UniProt O15554+P0DP23)
Test Details: Whole-cell patch-clamp KCa3.1 activation (QPatch, HEK-293)
Format: cell-based
Design: host or cells: HEK-293
Reported Conditions: SAR, FIG. 2
Property Measured: effect of structural change on KCa2.3 and KCa3.1 activation compared with SKA-31

effect of structural change on KCa2.3 and KCa3.1 activation compared with SKA-31 recorded for this compound, Nc1nc2c3c(ccc2s1)CCC3 [SKA-81] , is reduction in potency

effect of structural change on KCa2.3 and KCa3.1 activation compared with SKA-31 recorded for this compound, Nc1nc2c(ccc3sccc32)s1 [SKA-110] , is reduction in potency

====

Study System: human KCa2.3 (Homo sapiens)
Construct: The cloning of hKCa2.3 (19 CAG repeats) and hKCa3.1 has been previously described (Wulff et al., 2000)
Test Details: Manual whole-cell patch-clamp KCa2.3 activation (COS-7)
Format: cell-based
Reported Conditions: 250 nM free Ca2+; read-out: EC50 for KCa2.3 activation
Would you kindly list EC50 for each of these molecules?
Answers are plain numbers, in µM.

Would you please look over these solved cases?
EC50 recorded for this molecule, Nc1nc2c(cc(Cl)c3ccccc32)s1 [SKA-72, 5-Chloronaphtho[1,2-d]thiazol-2-amine] , is 0.335

EC50 recorded for this molecule, Nc1nc2c(cc3c4c(cccc42)CC3)s1 , is 1

Turning to the following molecule.
EC50 recorded for this molecule, Cc1cc2nc(N)oc2c2ccccc12 [SKA-121, 5-Methylnaphtho[2,1-d]oxazol-2-amine] , is 4.4

====

Study System: human KCa2.3 (Homo sapiens, UniProt Q9UGI6)
Construct: The cloning of hKCa2.3 (19 CAG repeats) and hKCa3.1 has been previously described (Wulff et al., 2000)
Test Details: Manual whole-cell patch-clamp KCa2.3 activation (COS-7)
Type: cell-based
Reported Conditions: Appendix A; read-out: KCa2.3 EC50
Property Measured: pEC50
Numbers only, as −log10 of the molar value.

Bench note, human KCa2.3 (Homo sapiens, UniProt Q9UGI6): Nc1nc2c(ccc3ccccc32)o1 [SKA-102, Naphtho[1,2-d]oxazol-2-amine] , pEC50 reads 4.62

====

Study System: human KCa2.3 (Homo sapiens, UniProt Q9UGI6)
Construct: The cloning of hKCa2.3 (19 CAG repeats) and hKCa3.1 has been previously described (Wulff et al., 2000)
Test Details: Manual whole-cell patch-clamp KCa2.3 activation (COS-7)
Format: cell-based
Reported Conditions: Table 1; 250 nM free Ca2+; read-out: KCa2.3 EC50
Property Measured: EC50 (µM)
Give bare numbers, in µM.

EC50 recorded for this compound, Cc1cc2nc(N)oc2c2ccccc12 [SKA-121, 5-Methylnaphtho[2,1-d]oxazol-2-amine] , is 4.4

====

Test Details: logP
Format: physicochemical
Property Measured: logP
Give bare numbers.

logP recorded for this compound, Cc1cc2nc(N)oc2c2ccccc12 [SKA-121, 5-Methylnaphtho[2,1-d]oxazol-2-amine] , is 1.79

====

Test Details: Pharmacokinetics in mice (UPLC/MS)
Format: in vivo, mouse
Reported Conditions: male, C57Bl/6J, mouse, plasma, iv, 10 mg/kg, 10 mg/kg i.v.; mice; read-out: elimination half-life (converted)
Text: Pharmacokinetics. Twelve week-old male C57BI/6Jmice were purchased from Charles River Laboratories (Wilmington, Mass.) and housed in microisolator cages with rodent chow and autoclaved water ad libitum. All experiments were in accordance with National Institutes of Health guidelines and approved by the University of California, Davis, Institutional Animal Care and Use Committee. […]
Property Measured: half-life
Field: value (include unit after the number)

half-life recorded for this molecule, Cc1cc2sc(N)nc2c2ccccc12 [SKA-111, 5-methylnaphtho[1,2-d]thiazol-2-amine] , is 4.7 h
